recorded_endpoint: melting point

Some solved entries appear below for comparison.
compound: Cc1cc(Br)ccc1NS(C)(=O)=O
result: 144 to 146 °C

compound: COc1ccc(C(=O)c2ccccc2Cl)cc1
result: 77 to 79 °C

compound: CCOc1ccc(O)c(C=O)c1
result: 49 to 51 °C

compound: CS(=O)(=O)c1nc2ccccc2[nH]1
result: 188 to 192 °C

compound: O=C(O)CNS(=O)(=O)c1c(F)cc(F)cc1Br
result: 136 to 138 °C

Pending compound:
[ask] Value lookup for melting point; key = `CN(CC(=O)O)C(=O)c1cccs1`
[reply] 101 to 103 °C

---

Quick list: melting point per entry.

Reference set (4 entries):
molecule: Nc1nc(-c2nc3ccccc3s2)cs1
recorded_endpoint: melting point
result: 248 to 250 °C
//
molecule: Cc1ccc(OCc2nc(N)no2)cc1
recorded_endpoint: melting point
result: 144 to 146 °C
//
molecule: O=S1(=O)CCC(Cl)CC1
recorded_endpoint: melting point
result: 129 to 131 °C
//
molecule: COC(=O)c1c(Cl)ccc([N+](=O)[O-])c1N
recorded_endpoint: melting point
result: 89 to 91 °C

Now look at this entry.
[ask] I am curious: what melting point value has been reported for N#CC(O)c1ccc([N+](=O)[O-])cc1 (stereo not drawn) ?
[reply] 109 to 111 °C
